Where do the numbers come from? From patent US12692236B2.

# Assay system: sigma-1 receptor (Homo sapiens, UniProt Q99720)
# Sequence (Q99720 whole entry, species assumed): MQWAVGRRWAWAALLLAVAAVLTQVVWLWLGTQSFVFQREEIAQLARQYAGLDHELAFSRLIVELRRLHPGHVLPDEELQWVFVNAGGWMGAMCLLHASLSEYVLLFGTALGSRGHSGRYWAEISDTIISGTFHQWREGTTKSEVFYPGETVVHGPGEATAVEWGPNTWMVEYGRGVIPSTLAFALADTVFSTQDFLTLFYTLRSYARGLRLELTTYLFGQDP
# Test description: sigma-1 receptor binding affinity (Ki)
# Study conditions: read-out: Ki (nM) Sigma-1
Measure: Ki (nM)
Report as a plain number; the unit nM is understood.

In the examples that follow, each entry is paired with its recorded Ki.
Per the records, this molecule ( O=C(c1c2c(nn1-c1ccccc1)CCC(NCCc1ccncc1)C2)N1CCCCC1 (stereo not shown) ) has Ki equal to 226

Per the records, this molecule ( CCCn1nc(C(=O)N(C)C)c2c1CCC(NCc1ccc(F)cc1)C2 (stereo not shown) ) has Ki equal to 1580

Per the records, this molecule ( O=C(c1nn(-c2ccccc2)c2c1CC(NCCc1ccncc1)CC2)N1CCCCC1 (stereo not shown) ) has Ki equal to 1030

Per the records, this molecule ( O=C(c1nn(-c2ccccc2)c2c1CC(NCCc1ccc3c(c1)OCO3)CC2)N1CCCCC1 (stereo not shown) ) has Ki equal to 547

Per the records, this molecule ( O=C(c1c2c(nn1-c1ccccc1)CCC(NCc1ccccc1)C2)N1CCCCC1 (stereo not shown) ) has Ki equal to 38

Consider now this further molecule.
Per the records, this molecule ( CCCn1nc(C(=O)N2CCCCC2)c2c1CCC(N1CCN(c3ccc([N+](=O)[O-])cc3)CC1)C2 (stereo not shown) ) has Ki equal to 1590
